# measuredOn: HA of influenza B virus B/Lee/40 (influenza B virus B/Lee/40) (UniProt P03460)
# Sequence (P03460 16-584 limits assumed): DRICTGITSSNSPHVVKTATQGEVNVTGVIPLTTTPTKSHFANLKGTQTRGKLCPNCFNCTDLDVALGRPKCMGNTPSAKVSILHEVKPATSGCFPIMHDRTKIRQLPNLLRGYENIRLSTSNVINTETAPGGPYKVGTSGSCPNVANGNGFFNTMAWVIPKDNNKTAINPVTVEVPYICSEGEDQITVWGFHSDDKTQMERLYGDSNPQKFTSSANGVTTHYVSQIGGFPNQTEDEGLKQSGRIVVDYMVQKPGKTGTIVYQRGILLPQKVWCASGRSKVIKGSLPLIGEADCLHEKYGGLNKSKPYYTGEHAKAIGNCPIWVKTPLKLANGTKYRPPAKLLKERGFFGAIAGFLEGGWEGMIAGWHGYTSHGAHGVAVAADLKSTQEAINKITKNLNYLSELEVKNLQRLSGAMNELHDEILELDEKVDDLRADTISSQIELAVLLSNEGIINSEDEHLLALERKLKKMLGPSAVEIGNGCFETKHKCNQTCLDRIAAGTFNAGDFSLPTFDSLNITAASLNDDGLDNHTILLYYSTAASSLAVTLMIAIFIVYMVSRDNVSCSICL
# assayRemarks: cell-based or functional assay
Returns Condition met if the recorded Neutralization (Ave IC50 ug/ml) is greater than or equal to 0.01 µg/mL, and Condition not met otherwise.

FBC-39 (antibody, V domains shown) VH: EVQLVVSGGGLVKPGGSLRLSCAASGLSFLNAWMSWVRQAPGKGLEWVGRIKSNTDGGTTDYAAPVKGRFSISRDDSKNMLFLHMSSLRTEDTAVYYCATDGPYSDDFRSGYAARYRYFGMDVWGQGTTVTVSS VL: DIQMTQSPSSVSASVGDRVTITCRASQDISTWLAWYQQKPGKAPKLLIYAASSLQSGVPSRFSGSGSGTDFTLTISSLQPEDFATYFCQQANSFPPTFGQGTKLEIK ... Condition met
FBC-39 LSL (antibody, V domains shown) VH: EVQLVESGGGLVKPGGSLRLSCAASGLSFLNAWMSWVRQAPGKGLEWVGRIKSNTDGGTTDYAAPVKGRFTISRDDSKNTLYLQMSSLKTEDTAVYYCTTDGPYSDDFRSGYAARYRYFGMDVWGQGTTVTVSS VL: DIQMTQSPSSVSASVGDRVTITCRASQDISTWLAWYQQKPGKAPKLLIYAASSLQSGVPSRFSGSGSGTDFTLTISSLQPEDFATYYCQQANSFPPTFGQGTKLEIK ... Condition met

Exam item: Is Neutralization (Ave IC50 ug/ml) for FBD-94 (antibody, V domains shown) VH: EVQLVESGGGLVQPGRSLRLSCAVSGFIFEDYAINWVRQAPGKGLEWVSIISWDSGRIGYADSVRGRFTISRDNAKNSSFLQMNSLRPEDTAVYYCVKDMLAYYYDGSGIRYNLYGMDVWGQGTTVTVSS VL: EIVLTQSPATLSLSPGERATLSCRASRSITTFLAWYQQKPGQAPRLLIYDASNRATGVPARFSGSGSGTDFTLTINSLEPDDFAIYYCQQRDHWPPIFGQGTRLEIK at or above 0.01 µg/mL?
Marked response: Condition not met

Exam item: Is Neutralization (Ave IC50 ug/ml) for FBC-39 FTL (antibody, V domains shown) VH: EVQLVESGGGLVKPGGSLRLSCAASGFTFLNAWMSWVRQAPGKGLEWVGRIKSNTDGGTTDYAAPVKGRFTISRDDSKNTLYLQMSSLKTEDTAVYYCTTDGPYSDDFRSGYAARYRYFGMDVWGQGTTVTVSS VL: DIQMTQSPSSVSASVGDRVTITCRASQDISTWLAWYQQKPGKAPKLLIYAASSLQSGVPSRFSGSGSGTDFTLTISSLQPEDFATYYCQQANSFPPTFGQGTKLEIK at or above 0.01 µg/mL?
Marked response: Condition met

Exam item: Reported Neutralization (Ave IC50 ug/ml) reaches at least 0.01 µg/mL for FBD-56 (antibody, V domains shown) VH: EVQLVESGGHLVQPGRSLRLSCAASGFTFEDYAMNWVRQAPGKGLEWVSVISWDSGRIGYADSVKGRFTISRDNAKNSSYLQMNSLRPEDTALYYCVRDMLAYYSDNSGKKYNVYGMDVWGQGTTVTVSS VL: EIVLTQSPATLSLSPGERATLSCRASQSVSTFLAWYQQKPGQAPRLLMYDASNRATGIPARFSGSGSGTDFTLTISSLEPEDFAIYYCQQRSHWPPIFGQGTRLEIK ?
Marked response: Condition not met
